Experiment: physchem
Conditions: octanol/water
Description: GSK_TB: GSK in-house hydrophobicity assay (logP)
Entries whose logP is below 6 take Y; entries at or above 6 take N.

[[record]]
compound = "Clc1ccc(CCNc2cc(-c3ccccc3)nc3ncnn23)cc1"
category_label = "Y"

[[record]]
compound = "COc1ccc(-c2nc(-c3cccc(NC(=O)Cc4ccc(F)cc4)c3)no2)cc1OC"
category_label = "N"

[[record]]
compound = "CN1CCN(c2cc(-c3ccc(F)cc3)nc(-c3ccncc3)n2)CC1"
category_label = "Y"

[[record]]
compound = "CC(C)(C)C(=O)CC1(O)Oc2ccccc2N=C1C=C(O)C(C)(C)C (stereo unspecified)"
category_label = "N"

[[record]]
compound = "COc1cc(CN2CCC3(C=Cc4ccccc43)CC2)cc2c1OCO2"
category_label = "N"

[[record]]
compound = "Cc1ccc2nc(C)c(C(=O)NCC(C)C)n2c1"
category_label = "Y"

[[record]]
compound = "O=C(Cc1ccc(F)cc1)Nc1nc(-c2ccccn2)cs1"
category_label = "Y"

[[record]]
compound = "N=C(Nc1nc(-c2ccccn2)cc2ccccc12)c1cccc(Cl)c1"
category_label = "N"

[[record]]
compound = "O=C(C=Cc1cccs1)N1CCN(Cc2ccc3c(c2)OCO3)CC1"
category_label = "Y"

[[record]]
compound = "O=C(NCc1ccc2c(c1)OCO2)c1c(C(F)(F)F)nc2ccccn12"
category_label = "Y"

[[record]]
compound = "Cc1ccc(SCCNC(=O)c2c(-c3ccccc3)noc2C)cc1"
category_label = "N"


###

Test: physchem
Settings: octanol/water
MEASURED_QUANTITY: logP

[[record]]
compound = "O=C(C=Cc1ccccc1)N1CCN(Cc2ccc3c(c2)OCO3)CC1"
measured_quantity = "logP"
recorded_result = 5.44

[[record]]
compound = "CC1=Nc2ccccc2CN1CC(O)c1cc(Br)cs1 (stereo unspecified)"
measured_quantity = "logP"
recorded_result = 4.12

[[record]]
compound = "COc1ccc2sc(Nc3nc(-c4ccccn4)cs3)nc2c1"
measured_quantity = "logP"
recorded_result = 5.34

[[record]]
compound = "Cc1nc2ccccn2c1C(=O)NCc1ccccc1"
measured_quantity = "logP"
recorded_result = 3.2

[[record]]
compound = "CC(C)n1ncc2c(C(=O)NCC(c3cccs3)N3CCOCC3)cc(-c3ccccc3)nc21 (stereo unspecified)"
measured_quantity = "logP"
recorded_result = 7.54

[[record]]
compound = "Cc1ccc2nc(C)c(C(=O)NCc3ccco3)n2c1"
measured_quantity = "logP"
recorded_result = 3.02

[[record]]
compound = "Cc1ccc2nc(C(F)(F)F)c(C(=O)NCc3cc(Cl)cc(Cl)c3)n2c1"
measured_quantity = "logP"
recorded_result = 7.04

[[record]]
compound = "Fc1ccccc1-c1noc(N2CCN(Cc3ccc4c(c3)OCO4)CC2)n1"
measured_quantity = "logP"
recorded_result = 6.94

[[record]]
compound = "Cc1nnc(NCc2cccc(Cl)c2)c2ccccc12"
measured_quantity = "logP"
recorded_result = 4.52

[[record]]
compound = "Cc1ccc2[nH]c(C3CCCNC3)c(-c3ccncc3)c2c1 (stereo unspecified)"
measured_quantity = "logP"
recorded_result = 3.72

[[record]]
compound = "CN1CCN(c2ccc(C(F)(F)F)cc2NC(=O)c2ccccn2)CC1"
measured_quantity = "logP"
recorded_result = 6.84


###

Assay: physchem
Details: buffer, pH 7.4
Description: GSK_TB: GSK in-house hydrophobicity assay at pH7.4 (logD)
Consider the following molecules and their measured logD readings.
MEASURED_QUANTITY: logD

[[record]]
molecule = "c1ccc(-c2csc(Nc3nc4cc5c(cc4s3)OCO5)n2)nc1"
recorded_result = 5.07

[[record]]
molecule = "c1ccc(Cc2nnc(Sc3ccnc(N4CCN(c5ccncc5)CC4)n3)n2CCN2CCOCC2)cc1"
recorded_result = 2.18

[[record]]
molecule = "CCOc1ccc(OCc2ccc(C(=O)NNC(=O)c3ccc([N+](=O)[O-])o3)cc2)cc1"
recorded_result = 4.32

[[record]]
molecule = "O=C(C1CCN(c2nnc(-n3cccc3)s2)CC1)N1CCC(Cc2ccccc2)CC1"
recorded_result = 6.37

[[record]]
molecule = "CCc1nc2ccccc2n1CC(O)COc1cc(C)ccc1Cl (stereo not drawn)"
recorded_result = 5.35

[[record]]
molecule = "Cc1ccc(C(=O)Nc2nc(-c3ccccn3)cs2)s1"
recorded_result = 4.6

[[record]]
molecule = "Cc1ccc2nc(C(F)(F)F)c(C(=O)NCc3cccs3)n2c1"
recorded_result = 4.79

[[record]]
molecule = "N=C(Nc1nc(-c2ccccn2)cc2ccccc12)c1cccc(Cl)c1"
recorded_result = 8.24

[[record]]
molecule = "CNc1nc(SC)nc2ccsc12"
recorded_result = 3.3

[[record]]
molecule = "Cc1n[nH]c(C)c1S(=O)(=O)NCc1nc(NCCCc2ccccc2)c2ccccc2n1"
recorded_result = 4.32

[[record]]
molecule = "N#Cc1nc(-c2ccccc2)oc1S(=O)(=O)c1ccc(Cl)cc1"
recorded_result = 7.12

[[record]]
molecule = "COc1ccc2nc(C)cc(OCC(=O)NCc3ccccc3)c2c1"
recorded_result = 3.86

[[record]]
molecule = "Brc1c(-c2ccc3c(c2)OCO3)nc2ncccn12"
recorded_result = 3.48

[[record]]
molecule = "CC(Oc1ccccc1)C(=O)Nc1nc(-c2ccccn2)cs1 (stereo not drawn)"
recorded_result = 5.07

[[record]]
molecule = "CC1=Nc2ccccc2CN1CC(O)c1cc(Br)cs1 (stereo not drawn)"
recorded_result = 2.46

[[record]]
molecule = "Br.CCCc1cc(C(C)=O)ccc1OCCCON1C(=N)N=C(N)NC1(C)C"
recorded_result = 2.92

[[record]]
molecule = "Cc1nnc(NCc2cccc(Cl)c2)c2ccccc12"
recorded_result = 4.32

[[record]]
molecule = "O=C(O)C(F)(F)F.c1ccc2c(-c3ccc(CNCC4CCNC4)cc3)cncc2c1 (stereo not drawn)"
recorded_result = 1.52

[[record]]
molecule = "CCOC(=O)c1cc(-c2csc(Nc3c(C)cc(C)cc3C)n2)on1"
recorded_result = 7.12

[[record]]
molecule = "COc1ccc2cc(C(=O)Nc3ccc(C4CCN(C)CC4)cc3)sc2c1"
recorded_result = 3.11

[[record]]
molecule = "O=C(NCc1cc(Cl)cc(Cl)c1)c1c(C(F)(F)F)nc2ccccn12"
recorded_result = 6.09

[[record]]
molecule = "Cc1ccc2[nH]c(C3CCCNC3)c(-c3ccncc3)c2c1 (stereo not drawn)"
recorded_result = 2.18

[[record]]
molecule = "NC(=O)c1cc(-c2ccsc2)ccc1OCCOc1ccccc1"
recorded_result = 5.44

